molecular target: Intercellular adhesion molecule (ICAM-1), Integrin alpha-L/beta-2 (Homo sapiens, UniProt P05107+P05362+P20701); experiment: Inhibitory activity against association of LFA-1 with intercellular adhesion molecule 1
Sequence (P20701 whole entry): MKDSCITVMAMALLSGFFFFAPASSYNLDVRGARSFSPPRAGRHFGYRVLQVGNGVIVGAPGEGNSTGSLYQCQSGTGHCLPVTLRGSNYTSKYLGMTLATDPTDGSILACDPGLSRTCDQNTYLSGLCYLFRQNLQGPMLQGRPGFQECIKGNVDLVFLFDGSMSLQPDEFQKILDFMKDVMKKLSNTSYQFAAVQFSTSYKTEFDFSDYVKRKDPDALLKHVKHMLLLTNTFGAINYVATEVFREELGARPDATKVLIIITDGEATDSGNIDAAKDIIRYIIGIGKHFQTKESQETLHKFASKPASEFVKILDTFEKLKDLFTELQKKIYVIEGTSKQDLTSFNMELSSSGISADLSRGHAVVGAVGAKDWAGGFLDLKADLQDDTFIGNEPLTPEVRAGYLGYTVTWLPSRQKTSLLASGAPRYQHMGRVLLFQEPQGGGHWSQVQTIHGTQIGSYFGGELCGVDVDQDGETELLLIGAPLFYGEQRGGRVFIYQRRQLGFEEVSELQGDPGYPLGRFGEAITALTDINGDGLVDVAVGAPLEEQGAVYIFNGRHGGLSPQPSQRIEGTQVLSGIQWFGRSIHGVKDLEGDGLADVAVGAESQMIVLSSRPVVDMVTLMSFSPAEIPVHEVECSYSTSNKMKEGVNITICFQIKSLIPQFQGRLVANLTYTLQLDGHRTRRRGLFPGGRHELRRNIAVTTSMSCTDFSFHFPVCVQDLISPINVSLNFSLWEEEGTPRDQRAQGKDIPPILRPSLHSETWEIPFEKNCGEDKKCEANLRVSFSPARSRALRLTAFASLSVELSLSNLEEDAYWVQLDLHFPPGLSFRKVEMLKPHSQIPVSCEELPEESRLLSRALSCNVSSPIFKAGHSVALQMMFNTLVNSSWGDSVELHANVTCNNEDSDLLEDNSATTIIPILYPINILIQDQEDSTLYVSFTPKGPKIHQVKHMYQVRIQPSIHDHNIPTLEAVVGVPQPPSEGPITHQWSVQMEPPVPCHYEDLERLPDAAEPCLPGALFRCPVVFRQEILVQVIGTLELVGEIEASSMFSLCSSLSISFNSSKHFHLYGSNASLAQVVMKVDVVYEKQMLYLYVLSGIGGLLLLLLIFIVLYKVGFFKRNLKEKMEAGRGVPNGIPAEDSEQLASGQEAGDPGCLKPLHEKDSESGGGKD
Sequence (P05362 whole entry): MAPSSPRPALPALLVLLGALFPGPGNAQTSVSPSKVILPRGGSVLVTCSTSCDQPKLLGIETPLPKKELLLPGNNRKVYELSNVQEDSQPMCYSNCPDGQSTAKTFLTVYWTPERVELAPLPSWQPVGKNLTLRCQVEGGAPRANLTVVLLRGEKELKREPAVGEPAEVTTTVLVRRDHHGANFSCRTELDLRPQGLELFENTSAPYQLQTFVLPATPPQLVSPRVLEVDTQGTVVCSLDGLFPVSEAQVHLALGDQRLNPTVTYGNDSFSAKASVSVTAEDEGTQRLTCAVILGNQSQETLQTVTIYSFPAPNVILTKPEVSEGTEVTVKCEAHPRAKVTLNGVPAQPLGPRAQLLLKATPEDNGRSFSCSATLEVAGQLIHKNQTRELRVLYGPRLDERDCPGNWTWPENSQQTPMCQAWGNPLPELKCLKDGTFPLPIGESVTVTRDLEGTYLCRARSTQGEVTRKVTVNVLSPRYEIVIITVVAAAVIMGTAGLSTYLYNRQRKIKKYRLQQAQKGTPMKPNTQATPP
Sequence (P05107 whole entry): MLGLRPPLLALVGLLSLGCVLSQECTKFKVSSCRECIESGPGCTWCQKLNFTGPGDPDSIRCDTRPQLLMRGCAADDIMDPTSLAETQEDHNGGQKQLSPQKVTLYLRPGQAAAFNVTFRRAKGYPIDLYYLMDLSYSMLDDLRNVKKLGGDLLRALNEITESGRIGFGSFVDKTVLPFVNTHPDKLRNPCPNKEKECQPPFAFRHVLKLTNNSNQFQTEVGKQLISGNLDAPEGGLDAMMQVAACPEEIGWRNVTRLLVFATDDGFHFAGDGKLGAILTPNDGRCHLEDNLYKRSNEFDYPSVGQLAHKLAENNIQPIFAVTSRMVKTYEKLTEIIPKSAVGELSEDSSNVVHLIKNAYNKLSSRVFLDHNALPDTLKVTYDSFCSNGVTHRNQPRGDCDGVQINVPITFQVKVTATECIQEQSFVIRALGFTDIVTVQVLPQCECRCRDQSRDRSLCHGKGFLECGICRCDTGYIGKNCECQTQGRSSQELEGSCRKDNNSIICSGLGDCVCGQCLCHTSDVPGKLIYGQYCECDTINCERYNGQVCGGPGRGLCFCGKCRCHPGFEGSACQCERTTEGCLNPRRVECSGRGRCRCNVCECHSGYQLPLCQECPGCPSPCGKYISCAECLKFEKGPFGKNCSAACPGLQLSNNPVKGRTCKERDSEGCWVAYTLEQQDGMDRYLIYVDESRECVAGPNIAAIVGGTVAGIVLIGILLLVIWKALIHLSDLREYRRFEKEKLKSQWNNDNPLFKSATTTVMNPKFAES
readout-type: IC50 (µM)

{"smiles-code": "COc1ccc(C(=O)N[C@@H](Cc2c[nH]c3ccccc23)C(=O)O)cc1", "IC50 / µM": 178}

P = O=C(N[C@@H](Cc1c[nH]c2ccccc12)C(=O)O)c1cccc(F)c1F
Q = O=C(N[C@@H](Cc1c[nH]c2ccccc12)C(=O)O)c1ccccc1
R = COc1ccccc1C(=O)N[C@@H](Cc1c[nH]c2ccccc12)C(=O)O
S = O=C(N[C@@H](Cc1c[nH]c2ccccc12)C(=O)O)c1ccc([N+](=O)[O-])cc1Cl
Query :: Order field: IC50 | Direction: descending (largest first) As an answer, provide the labels arranged in the order called for.
Result :: R, Q, P, S
